System: Plasmodium falciparum
Experiment: GSK_TCMDC: Inhibition of Plasmodium falciparum 3D7 in whole red blood cells, using parasite LDH activity as an index of growth. Test compounds present at 2uM
Type: functional
Inhibition values by entry
Please respond with the number in % and leave the unit unwritten.

// worked examples, Inhibition included
> print(dat)
                                   molecule     measure  units.text  experimental.value
1          Cc1ccc(S(C)(=O)=O)cc1/C=C/C(=O)O  Inhibition           %                  96
2  CC(C)(C)CCOC(=O)N1CCc2c(cc(O)c(O)c2Cl)C(c2ccc(O)cc2)C1 (centres undefined)  Inhibition           %                  97
3  COc1cc2nccc(Nc3ccc(Oc4ccccc4)cc3)c2cc1OC.Cl  Inhibition           %                 100

Alright, here's another molecule for you.
## Task Look up Plasmodium falciparum data: Inhibition of O=C(C=Cc1ccc(Cl)c(Cl)c1)NCCCCCN1CCC(CCNC(=O)/C=C/c2ccccc2)CC1 , then report it.
## Result 97

Hey, just so you know, these numbers are from ChEMBL document CHEMBL1157539.
